This collection of values is drawn from ChEMBL document CHEMBL5291721.

Molecular target: Alpha-1A adrenergic receptor (Homo sapiens, UniProt P35348); further: assay procedure not described here
Sequence (P35348 whole entry): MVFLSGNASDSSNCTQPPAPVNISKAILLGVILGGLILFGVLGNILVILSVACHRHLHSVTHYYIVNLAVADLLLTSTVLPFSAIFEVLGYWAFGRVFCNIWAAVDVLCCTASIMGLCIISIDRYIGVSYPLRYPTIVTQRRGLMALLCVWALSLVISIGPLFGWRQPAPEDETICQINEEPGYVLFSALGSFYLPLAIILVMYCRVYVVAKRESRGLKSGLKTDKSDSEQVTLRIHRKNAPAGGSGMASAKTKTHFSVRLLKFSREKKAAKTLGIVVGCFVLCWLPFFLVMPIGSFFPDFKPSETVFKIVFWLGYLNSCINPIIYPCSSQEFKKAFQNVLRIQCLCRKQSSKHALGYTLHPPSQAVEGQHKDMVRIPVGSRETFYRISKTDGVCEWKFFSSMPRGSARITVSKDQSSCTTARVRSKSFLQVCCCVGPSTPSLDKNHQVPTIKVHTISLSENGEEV
Type: functional, cell-based
Parameter AC50: see the listing below.

COMPOUND: CC/C=C\C/C=C\C/C=C\C/C=C\C/C=C\CCCC(=O)O
TARGET_OF_ASSAY: Alpha-1A adrenergic receptor (Homo sapiens, UniProt P35348); further: assay procedure not described here
AC50: > 30 µM

COMPOUND: Oc1cccc2cccnc12
TARGET_OF_ASSAY: Alpha-1A adrenergic receptor (Homo sapiens, UniProt P35348); further: assay procedure not described here
AC50: > 30 µM

COMPOUND: Cn1cc[nH]c1=S
TARGET_OF_ASSAY: Alpha-1A adrenergic receptor (Homo sapiens, UniProt P35348); further: assay procedure not described here
AC50: > 30 µM

COMPOUND: CCS(=O)(=O)N1CC(CC#N)(n2cc(-c3ncnc4[nH]ccc34)cn2)C1
TARGET_OF_ASSAY: Alpha-1A adrenergic receptor (Homo sapiens, UniProt P35348); further: assay procedure not described here
AC50: > 30 µM

COMPOUND: Nc1nc2ccc(OC(F)(F)F)cc2s1
TARGET_OF_ASSAY: Alpha-1A adrenergic receptor (Homo sapiens, UniProt P35348); further: assay procedure not described here
AC50: > 30 µM

COMPOUND: CCO/N=C(\C(=O)N[C@@H]1C(=O)N2C(C(=O)[O-])=C(Sc3nc(-c4cc[n+](C)cc4)cs3)CS[C@H]12)c1nsc(N)n1
TARGET_OF_ASSAY: Alpha-1A adrenergic receptor (Homo sapiens, UniProt P35348); further: assay procedure not described here
AC50: > 30 µM

COMPOUND: NS(=O)(=O)c1cc2c(cc1Cl)NC(C1CC3C=CC1C3)NS2(=O)=O (stereo not drawn) [CYCLOTHIAZIDE]
TARGET_OF_ASSAY: Alpha-1A adrenergic receptor (Homo sapiens, UniProt P35348); further: assay procedure not described here
AC50: > 30 µM

COMPOUND: O=C(NC[C@H]1CN(c2ccc(N3CCOCC3=O)cc2)C(=O)O1)c1ccc(Cl)s1
TARGET_OF_ASSAY: Alpha-1A adrenergic receptor (Homo sapiens, UniProt P35348); further: assay procedure not described here
AC50: > 30 µM

COMPOUND: C[C@@H]1C[C@H]2[C@@H]3C[C@H](F)C4=CC(=O)C(Cl)=C[C@]4(C)[C@@]3(F)[C@@H](O)C[C@]2(C)[C@@]1(O)C(=O)CO
TARGET_OF_ASSAY: Alpha-1A adrenergic receptor (Homo sapiens, UniProt P35348); further: assay procedure not described here
AC50: > 30 µM

COMPOUND: Nc1nc(N)c2nc(-c3ccccc3)c(N)nc2n1
TARGET_OF_ASSAY: Alpha-1A adrenergic receptor (Homo sapiens, UniProt P35348); further: assay procedure not described here
AC50: > 30 µM

COMPOUND: C#C[C@]1(O)CC[C@H]2[C@@H]3CCc4cc(O)ccc4[C@H]3CC[C@@]21C
TARGET_OF_ASSAY: Alpha-1A adrenergic receptor (Homo sapiens, UniProt P35348); further: assay procedure not described here
AC50: > 30 µM

COMPOUND: C[C@@H]1C[C@H]2[C@@H]3C[C@H](F)C4=CC(=O)C=C[C@]4(C)[C@@]3(F)[C@@H](O)C[C@]2(C)[C@@]1(O)C(=O)COC(=O)C(C)(C)C [FLUMETHASONE PIVALATE]
TARGET_OF_ASSAY: Alpha-1A adrenergic receptor (Homo sapiens, UniProt P35348); further: assay procedure not described here
AC50: > 30 µM

COMPOUND: CCOC(=O)CC(SP(=S)(OC)OC)C(=O)OCC (stereo not drawn)
TARGET_OF_ASSAY: Alpha-1A adrenergic receptor (Homo sapiens, UniProt P35348); further: assay procedure not described here
AC50: > 30 µM

COMPOUND: COc1cc(NCc2ccc3nc(N)nc(N)c3c2C)cc(OC)c1OC [TRIMETREXATE]
TARGET_OF_ASSAY: Alpha-1A adrenergic receptor (Homo sapiens, UniProt P35348); further: assay procedure not described here
AC50: > 30 µM

COMPOUND: C[C@@H]1O[C@@H](OC[C@H]2O[C@@H](Oc3c(-c4ccc(OCCO)c(OCCO)c4)oc4cc(OCCO)cc(O)c4c3=O)[C@H](O)[C@@H](O)[C@@H]2O)[C@H](O)[C@H](O)[C@H]1O
TARGET_OF_ASSAY: Alpha-1A adrenergic receptor (Homo sapiens, UniProt P35348); further: assay procedure not described here
AC50: > 30 µM

COMPOUND: CN(CCOc1ccc(NS(C)(=O)=O)cc1)CCc1ccc(NS(C)(=O)=O)cc1 [DOFETILIDE]
TARGET_OF_ASSAY: Alpha-1A adrenergic receptor (Homo sapiens, UniProt P35348); further: assay procedure not described here
AC50: > 30 µM

COMPOUND: CCCC[N+]1(C)[C@@H]2C[C@@H](OC(=O)[C@H](CO)c3ccccc3)C[C@H]1[C@@H]1O[C@@H]12 (stereo partly drawn)
TARGET_OF_ASSAY: Alpha-1A adrenergic receptor (Homo sapiens, UniProt P35348); further: assay procedure not described here
AC50: > 30 µM

COMPOUND: CN1CCN(C(c2ccccc2)c2ccccc2)CC1
TARGET_OF_ASSAY: Alpha-1A adrenergic receptor (Homo sapiens, UniProt P35348); further: assay procedure not described here
AC50: > 30 µM

###

Consider the following molecules and their measured AC50 readings.
target: Mu-type opioid receptor (Homo sapiens, UniProt P35372); further: assay procedure not described here
Sequence (P35372 whole entry): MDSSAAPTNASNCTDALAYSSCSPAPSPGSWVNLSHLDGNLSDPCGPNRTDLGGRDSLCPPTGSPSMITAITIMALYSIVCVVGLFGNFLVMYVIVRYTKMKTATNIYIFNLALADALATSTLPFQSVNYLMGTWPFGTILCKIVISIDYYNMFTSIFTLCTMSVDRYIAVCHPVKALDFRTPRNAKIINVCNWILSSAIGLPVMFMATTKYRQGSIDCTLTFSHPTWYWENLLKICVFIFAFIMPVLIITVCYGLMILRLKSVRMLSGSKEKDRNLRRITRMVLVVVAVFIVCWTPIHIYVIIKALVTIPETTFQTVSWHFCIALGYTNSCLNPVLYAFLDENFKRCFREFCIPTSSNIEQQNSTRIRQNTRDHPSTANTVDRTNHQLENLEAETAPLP
MEASUREMENT_LABEL: AC50

MOLECULE: CC(=O)N(CC(O)CO)c1c(I)c(C(=O)NCC(O)CO)c(I)c(C(=O)NCC(O)CO)c1I (stereo unspecified) [IOHEXOL]
MEASUREMENT_LABEL: AC50
OBSERVED_VALUE: > 30 µM

MOLECULE: CN1CCCC(n2nc(Cc3ccc(Cl)cc3)c3ccccc3c2=O)CC1 (stereo unspecified) [AZELASTINE]
MEASUREMENT_LABEL: AC50
OBSERVED_VALUE: 23 µM

MOLECULE: CCCCOc1cc(C(=O)NCCN(CC)CC)c2ccccc2n1 [DIBUCAINE]
MEASUREMENT_LABEL: AC50
OBSERVED_VALUE: > 30 µM

MOLECULE: CC(=O)OCC(=O)[C@@]12OC3(CCCC3)O[C@@H]1C[C@H]1[C@@H]3CCC4=CC(=O)C=C[C@]4(C)[C@@]3(F)[C@@H](O)C[C@@]12C [AMCINONIDE]
MEASUREMENT_LABEL: AC50
OBSERVED_VALUE: > 30 µM

MOLECULE: CCc1ccc(CCOc2ccc(CC3SC(=O)NC3=O)cc2)nc1 (stereo unspecified) [PIOGLITAZONE]
MEASUREMENT_LABEL: AC50
OBSERVED_VALUE: > 10 µM

MOLECULE: Cc1ccc(C(=O)c2cc(O)c(O)c([N+](=O)[O-])c2)cc1 [TOLCAPONE]
MEASUREMENT_LABEL: AC50
OBSERVED_VALUE: > 30 µM

MOLECULE: CC(C)NNC(=O)c1ccncc1 [IPRONIAZID]
MEASUREMENT_LABEL: AC50
OBSERVED_VALUE: > 30 µM

MOLECULE: C#CC1(OC(N)=O)CCCCC1 [ETHINAMATE]
MEASUREMENT_LABEL: AC50
OBSERVED_VALUE: > 30 µM

MOLECULE: CN(C)C(=O)OC1N=C(c2ccccc2)c2cc(Cl)ccc2N(C)C1=O (stereo unspecified) [CAMAZEPAM]
MEASUREMENT_LABEL: AC50
OBSERVED_VALUE: > 10 µM

MOLECULE: NS(=O)(=O)c1cc(Cl)c(Cl)c(S(N)(=O)=O)c1 [DICHLORPHENAMIDE]
MEASUREMENT_LABEL: AC50
OBSERVED_VALUE: > 30 µM

MOLECULE: C[C@H]1O[C@H](O[C@H]2[C@H](O)[C@@H](O)[C@@H](O[C@H]3[C@H](O)[C@@H](O)C(O)O[C@@H]3CO)O[C@@H]2CO)[C@H](O)[C@@H](O)[C@@H]1N[C@H]1C=C(CO)[C@@H](O)[C@H](O)[C@H]1O (stereo partly specified) [ACARBOSE]
MEASUREMENT_LABEL: AC50
OBSERVED_VALUE: > 10 µM

MOLECULE: C=C1C[C@@H]2[C@H](CC[C@]3(C)C(=O)CC[C@@H]23)[C@@]2(C)C=CC(=O)C=C12 [EXEMESTANE]
MEASUREMENT_LABEL: AC50
OBSERVED_VALUE: > 30 µM

MOLECULE: CN1CCN(C(=O)OC2c3nccnc3C(=O)N2c2ccc(Cl)cn2)CC1 (stereo unspecified) [ZOPICLONE]
MEASUREMENT_LABEL: AC50
OBSERVED_VALUE: > 10 µM

MOLECULE: CC[C@H](C)C(=O)O[C@H]1C[C@H](O)C=C2C=C[C@H](C)[C@H](CC[C@@H](O)C[C@@H](O)CC(=O)O)[C@H]21 [PRAVASTATIN]
MEASUREMENT_LABEL: AC50
OBSERVED_VALUE: > 30 µM

MOLECULE: COC(=O)C1=C(C)NC(C)=C(C(=O)OCC(C)C)C1c1ccccc1[N+](=O)[O-] (stereo unspecified) [NISOLDIPINE]
MEASUREMENT_LABEL: AC50
OBSERVED_VALUE: 9.4 µM

MOLECULE: CCc1nn(CCCN2CCN(c3cccc(Cl)c3)CC2)c(=O)n1CCOc1ccccc1 [NEFAZODONE]
MEASUREMENT_LABEL: AC50
OBSERVED_VALUE: 3.8 µM
